Values compiled from PubChem BioAssay (NCI).

Test system: RXF 393 renal
Assay: NCI tumour cell line growth inhibition, 48 h
Items are presented alongside their recorded GI50.

Sample answers from the record:
COc1cccc(N=N/C(=N\NC(=O)c2cc(Br)ccc2O)c2ccc(N(CCC#N)CCC#N)cc2OC)c1 : 70.4 µg/mL
CCC1(NC(=O)c2cc(F)c(F)c(F)c2F)C(=O)NC(=O)N(C(C)C)C1=O (stereo not given) : 25.3 µM
O=S(=O)(NC1=NCCN1C(=S)SN1CCn2c1nsc2=S)c1ccccc1Cl : 4.38 µM
CC(C)C[C@H](NC(=O)CCn1ccc2ncccc2c1=O)B(O)O : 3.54 µM

Lab note: next molecule to report on.
Q: Fill in: GI50 of `COc1ccc(Cn2cc3c(c2-c2cc(OC)c(OC)c(OC)c2)CCc2cnoc2-3)cc1N` is ___
Result: 0.0319 µM
